Quick reference for AUC(0-t) among some compounds
# Procedure Details: Oral pharmacokinetics (plasma, brain, CSF)
# Assay type: in vivo, Sprague Dawley rats
# Test Parameters: Sprague Dawley, plasma, po; rat, per os, 10 mg/kg
Reply numerically in ng·h/mL, unit not repeated.

Recorded results for 3 compounds are shown here.
C[C@@H](O)[C@@H](C(=O)NCc1ccccc1)N1CC2(CCNC(=O)C2)C1=O (single isomer, unassigned) [CB] = 297
C[C@@H](O)[C@@H](C(=O)N(C)C)N1CC2(CCNC(=O)C2)C1=O (single isomer, unassigned) [CC] = 701
CCN1CCC2(CC1=O)CN(Cc1ccc(OC)cc1)C2=O (single isomer, unassigned) [CL] = 1430

Now examine the next entry.
Item under review: COc1ccc(CN2C[C@@]3(CCNC(=O)C3)C2=O)cc1 [Compound AA-2] . Reported AUC(0-t)?
17300

====

# Procedure Details: Oral pharmacokinetics (plasma, brain, CSF)
# Format: in vivo, Sprague Dawley rats
# Test Parameters: Sprague Dawley, plasma, po; rat, per os, 10 mg/kg
# Protocol: In another experiment, Sprague Dawley rats were dosed per os using a normal saline formulation containing 10 mg/kg of the compounds identified in the table below. Plasma, brain, and CSF samples were analyzed at various time points over a 24 hour period. The table below summarizes the results of the oral pharmacokinetics.
Quantity Kind: AUC(0-t) (ng·h/mL)
Reply numerically in ng·h/mL, unit not repeated.

Recorded results for 2 compounds are shown here.
COc1ccc(CN2CC3(CCNC(=O)C3)C2=O)cc1 (racemic) = 17800
COc1ccc(CN2CC3(CCN(C)C(=O)C3)C2=O)cc1 (single isomer, unassigned) = 5060

Now examine the next entry.
Item under review: COc1ccc(CN2C[C@]3(CCNC(=O)C3)C2=O)cc1 . Reported AUC(0-t)?
15500

====

# Procedure Details: IV pharmacokinetics
# Design: species or system Sprague Dawley rats
# Test Parameters: Sprague Dawley, in vivo, rat, 2 mg/kg, normal saline, read-out: Vss
Quick reference for Vd among some compounds
Reply numerically in L/kg, unit not repeated.

Recorded results for 2 compounds are shown here.
COc1ccc(CN2CC3(CCNC(=O)C3)C2=O)cc1 (racemic) = 0.56
COc1ccc(CN2C[C@]3(CCNC(=O)C3)C2=O)cc1 = 0.76

Item under review: COc1ccc(CN2CC3(CCN(C)C(=O)C3)C2=O)cc1 (single isomer, unassigned) . Reported Vd?
0.91

====

# Experimental System: NMDAR2A expressing HEK cell membranes (Homo sapiens, UniProt Q05586+Q12879)
# Construct: expressed in transfected cells; host or cells: HEK cells (membrane extract)
# Sequence (Q12879 23-1464, other chains not shown): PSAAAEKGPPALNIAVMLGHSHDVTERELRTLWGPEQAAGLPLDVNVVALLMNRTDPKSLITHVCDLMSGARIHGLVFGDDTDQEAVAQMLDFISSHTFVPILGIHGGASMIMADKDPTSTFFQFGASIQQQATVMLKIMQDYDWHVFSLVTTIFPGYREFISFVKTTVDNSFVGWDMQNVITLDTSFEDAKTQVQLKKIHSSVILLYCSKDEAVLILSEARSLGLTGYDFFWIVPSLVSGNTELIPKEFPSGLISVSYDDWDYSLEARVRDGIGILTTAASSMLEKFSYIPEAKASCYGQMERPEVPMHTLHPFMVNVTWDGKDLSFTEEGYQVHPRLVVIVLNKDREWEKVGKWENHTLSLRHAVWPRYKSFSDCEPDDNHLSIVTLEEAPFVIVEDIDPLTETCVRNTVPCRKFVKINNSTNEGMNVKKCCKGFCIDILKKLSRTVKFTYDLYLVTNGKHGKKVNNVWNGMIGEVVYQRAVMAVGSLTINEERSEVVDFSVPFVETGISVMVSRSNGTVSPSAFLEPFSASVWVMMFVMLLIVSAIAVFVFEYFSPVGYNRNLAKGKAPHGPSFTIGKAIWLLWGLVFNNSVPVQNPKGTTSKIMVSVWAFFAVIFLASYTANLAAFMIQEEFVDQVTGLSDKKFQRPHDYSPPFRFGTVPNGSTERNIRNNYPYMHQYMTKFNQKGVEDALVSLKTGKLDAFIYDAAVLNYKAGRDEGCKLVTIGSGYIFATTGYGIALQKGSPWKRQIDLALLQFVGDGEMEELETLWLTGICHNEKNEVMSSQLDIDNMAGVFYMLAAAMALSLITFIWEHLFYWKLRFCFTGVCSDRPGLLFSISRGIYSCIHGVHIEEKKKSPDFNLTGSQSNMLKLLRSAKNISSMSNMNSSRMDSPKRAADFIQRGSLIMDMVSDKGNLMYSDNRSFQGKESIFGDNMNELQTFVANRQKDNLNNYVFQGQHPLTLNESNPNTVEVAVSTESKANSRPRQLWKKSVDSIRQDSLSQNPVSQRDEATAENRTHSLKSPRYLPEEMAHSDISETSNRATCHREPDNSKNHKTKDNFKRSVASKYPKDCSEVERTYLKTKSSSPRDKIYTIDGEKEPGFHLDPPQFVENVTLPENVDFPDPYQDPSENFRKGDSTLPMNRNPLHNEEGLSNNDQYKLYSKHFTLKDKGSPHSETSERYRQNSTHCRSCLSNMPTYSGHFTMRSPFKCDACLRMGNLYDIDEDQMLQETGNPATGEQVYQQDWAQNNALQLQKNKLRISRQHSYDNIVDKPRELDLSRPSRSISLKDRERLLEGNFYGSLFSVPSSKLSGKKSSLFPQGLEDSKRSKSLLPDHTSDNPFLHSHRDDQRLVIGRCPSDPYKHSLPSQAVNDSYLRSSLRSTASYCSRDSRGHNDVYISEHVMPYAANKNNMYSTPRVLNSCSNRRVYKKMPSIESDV
# Procedure Details: NMDAR agonist assay, [3H]MK-801 binding, NMDAR2A
# Type: biochemical
# Test Parameters: 0.25 h, 50 μM glutamate; read-out: NMDAR2A A: % maximal [3H]MK-801 binding relative to 1 mM glycine
Quantity Kind: Emax

Recorded results for 3 compounds are shown here.
CCN1CCC2(CC1=O)CN(Cc1ccc(OC)cc1)C2=O (centres unmarked) [CK] = 0%
C[C@@H](O)[C@@H](C(=O)NCc1ccccc1)N1CC2(CCNC(=O)C2)C1=O (some centres unmarked) [CA] = 0%
CN1CCC2(CC1=O)CN(Cc1ccccc1)C2=O (single isomer, unassigned) [CW] = < 100%

Item under review: CC1CC(=O)N(c2ccc(F)cc2)C12CN(CC(N)=O)C2=O (centres unmarked) [CE] . Reported Emax?
0%

Then COc1ccc(CN2CC3(CCN(C)C(=O)C3)C2=O)cc1 (single isomer, unassigned) [CI] ?
< 100%

Then COc1ccc(CN2C[C@@]3(CCNC(=O)C3)C2=O)cc1 [Compound AA-2] ?
0%

Then CCN1CCC2(CC1=O)CN(Cc1ccc(OC)cc1)C2=O (single isomer, unassigned) [CL] ?
< 100%

Then CC1C(N)C(=O)N(C)C12CN(Cc1ccccc1)C2=O (single isomer, unassigned) [CG] ?
0%

Then CC1CC(=O)N(c2ccc(F)cc2)C12CN([C@H](C(N)=O)[C@@H](C)O)C2=O (single isomer, unassigned) [DK] ?
> 100%

Then CCN1CCC2(CC1=O)CN(Cc1ccccc1)C2=O (single isomer, unassigned) [CY] ?
< 100%

Then COc1ccc(CN2CC3(CCNC(=S)C3)C2=S)cc1 (single isomer, unassigned) [CO] ?
< 100%

These measurements were taken from patent US12084444B2.
